assay: recombinant barcode read abundance after kanamycin selection (control-corrected) (log10(CPM+1)); higher = more efficient recombination; sequences stand for … in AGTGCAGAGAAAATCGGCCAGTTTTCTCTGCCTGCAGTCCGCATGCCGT…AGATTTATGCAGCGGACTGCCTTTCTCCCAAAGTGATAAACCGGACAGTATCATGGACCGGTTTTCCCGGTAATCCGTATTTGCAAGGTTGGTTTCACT; site = the 11-nt target;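 also: IS621 recombinase and bridge RNA in Escherichia coli cells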
Cut-off 0.7 on recombinant barcode read abundance (log10), inclusive. At or above means met; below means not met.

hey, is recombinant barcode read abundance (log10) for this one >= 0.7? TGAAATGCTTGGGTTCTAACCTGTTGCCT (site TGATATGCTAG)
not met

hey, is recombinant barcode read abundance (log10) for this one >= 0.7? GATCCATCTTGGGTTCTAACCTGTTGCCT (site GATCCATCTAG)
not met

hey, is recombinant barcode read abundance (log10) for this one >= 0.7? CGCCCTACTTGGGTTCTAACCTGTTGCTT (site CGCCTAACTAA)
not met

hey, is recombinant barcode read abundance (log10) for this one >= 0.7? TGGGATCCTTGGGTTCTAACCTGTTGCAT (site TGGGATCCTAT)
met

hey, is recombinant barcode read abundance (log10) for this one >= 0.7? TATTGATCTTGGGTTCTAACCTGTTGCCT (site TACTGATCTAG)
not met

hey, is recombinant barcode read abundance (log10) for this one >= 0.7? TACGAATCTTGGGTTCTAACCTGTTGCCG (site TACGAATCTCG)
not met

hey, is recombinant barcode read abundance (log10) for this one >= 0.7? CTCTCTCCTTGGGTTCTAACCTGTTGCCT (site CTCTCTTCTAG)
not met

hey, is recombinant barcode read abundance (log10) for this one >= 0.7? GTAGTCCCTTGGGTTCTAACCTGTTGCCT (site GTAGTCCCTAG)
met

hey, is recombinant barcode read abundance (log10) for this one >= 0.7? CACTCCTCTTGGGTTCTAACCTGTTGCTT (site CTCTGCTCTAA)
not met

hey, is recombinant barcode read abundance (log10) for this one >= 0.7? TTAGTGGCTTGGGTTCTAACCTGTTGCCT (site TTAGTGGCTAG)
met

hey, is recombinant barcode read abundance (log10) for this one >= 0.7? TCACGTCCTTGGGTTCTAACCTGTTGCGT (site TCACGTCCTAA)
not met

hey, is recombinant barcode read abundance (log10) for this one >= 0.7? CTATTGTCTTGGGTTCTAACCTGTTGCGA (site CTATTGTCTTC)
met

hey, is recombinant barcode read abundance (log10) for this one >= 0.7? AGAATCCCTTGGGTTCTAACCTGTTGCAT (site AGAATCCCTAT)
met

hey, is recombinant barcode read abundance (log10) for this one >= 0.7? AGATGTGCTTGGGTTCTAACCTGTTGCCT (site AGATGTGCTAG)
met

hey, is recombinant barcode read abundance (log10) for this one >= 0.7? CGAGAACCTTGGGTTCTAACCTGTTGCCT (site TGAGAACCTAG)
not met

hey, is recombinant barcode read abundance (log10) for this one >= 0.7? TTGTCGACTTGGGTTCTAACCTGTTGCCA (site TTGCCGACTTG)
not met

hey, is recombinant barcode read abundance (log10) for this one >= 0.7? GGGTCCACTTGGGTTCTAACCTGTTGCGT (site GGGTCCACTAC)
met

hey, is recombinant barcode read abundance (log10) for this one >= 0.7? AAGCGCTCTTGGGTTCTAACCTGTTGCTG (site AAGCGCTCTCA)
met

hey, is recombinant barcode read abundance (log10) for this one >= 0.7? TACCATTCTTGGGTTCTAACCTGTTGCTT (site TACCATTCTAA)
not met

hey, is recombinant barcode read abundance (log10) for this one >= 0.7? AATGCTCCTTGGGTTCTAACCTGTTGCGT (site AATGCTCCTAT)
not met

hey, is recombinant barcode read abundance (log10) for this one >= 0.7? GAGTTGCCTTGGGTTCTAACCTGTTGCGT (site GAGTTCCCTAC)
not met

hey, is recombinant barcode read abundance (log10) for this one >= 0.7? ACTAAGTCTTGGGTTCTAACCTGTTGCCT (site AATAAGTCTAG)
not met

hey, is recombinant barcode read abundance (log10) for this one >= 0.7? CTCTATACTTGGGTTCTAACCTGTTGCCA (site CTCTAGACTTG)
not met

Origin of measurements: the supplement of paper PMC11208160
